- test_name: Plasma pharmacokinetics of DT2216 in patients, phase 1 dose escalation
- Format: in vivo, human
- setup_conditions: human, plasma, iv, 0.12 mg/kg, Cycle 1 Day 22, 0.12 mg/kg IV BIW, plasma, mean (CV%), N = 1; read-out: Vdss
metric_name: Vd (L/kg)

compound	reported
Cc1ncsc1-c1ccc([C@H](C)NC(=O)[C@@H]2C[C@@H](O)CN2C(=O)[C@@H](NC(=O)CCCCCC(=O)N2CCN(CC[C@H](CSc3ccccc3)Nc3ccc(S(=O)(=O)NC(=O)c4ccc(N5CCN(CC6=C(c7ccc(Cl)cc7)CCC(C)(C)C6)CC5)cc4)cc3S(=O)(=O)C(F)(F)F)CC2)C(C)(C)C)cc1 [DT2216]	0.0665

* * *

- test_name: Plasma pharmacokinetics of DT2216 in patients, phase 1 dose escalation
- Format: in vivo, human
- setup_conditions: human, plasma, iv, 0.08 mg/kg, Cycle 1 Day 1, 0.08 mg/kg IV, plasma, mean (CV%), N = 1; read-out: AUClast

entry_smiles	AUC(0-t), µg·h/mL
Cc1ncsc1-c1ccc([C@H](C)NC(=O)[C@@H]2C[C@@H](O)CN2C(=O)[C@@H](NC(=O)CCCCCC(=O)N2CCN(CC[C@H](CSc3ccccc3)Nc3ccc(S(=O)(=O)NC(=O)c4ccc(N5CCN(CC6=C(c7ccc(Cl)cc7)CCC(C)(C)C6)CC5)cc4)cc3S(=O)(=O)C(F)(F)F)CC2)C(C)(C)C)cc1	19.1

* * *

- test_name: Plasma pharmacokinetics of DT2216 in patients, phase 1 dose escalation
- Assay type: in vivo, human
- setup_conditions: human, plasma, iv, 0.08 mg/kg, Cycle 1 Day 22, 0.08 mg/kg IV BIW, plasma, mean (CV%), N = 1; read-out: Cmax

molecule	units_of_measure	Cmax
Cc1ncsc1-c1ccc([C@H](C)NC(=O)[C@@H]2C[C@@H](O)CN2C(=O)[C@@H](NC(=O)CCCCCC(=O)N2CCN(CC[C@H](CSc3ccccc3)Nc3ccc(S(=O)(=O)NC(=O)c4ccc(N5CCN(CC6=C(c7ccc(Cl)cc7)CCC(C)(C)C6)CC5)cc4)cc3S(=O)(=O)C(F)(F)F)CC2)C(C)(C)C)cc1 [DT2216]	ng/mL	962

* * *

- test_name: Plasma pharmacokinetics of DT2216 in patients, phase 1 dose escalation
- Format: in vivo, human
- setup_conditions: human, plasma, iv, 0.12 mg/kg, Cycle 1 Day 1, 0.12 mg/kg IV, plasma, mean (CV%), N = 1; read-out: AUC0−24
- Protocol: Dose escalation consisted of the administration of DT2216 intravenously twice weekly at several different doses outlined in protocol attached. The starting dose was 0.04 mg/kg, established based on pre-clinical toxicity studies. Safety was evaluated using CTCAE version 5.0. […] Patients were allowed a maximum of two intra-patient dose escalations. […] The extent of disease was evaluated using imaging studies and disease-appropriate tumor markers every 8 weeks from day 1 of the first cycle. […]

entry_smiles	AUC(0-t) [ng·h/mL]
Cc1ncsc1-c1ccc([C@H](C)NC(=O)[C@@H]2C[C@@H](O)CN2C(=O)[C@@H](NC(=O)CCCCCC(=O)N2CCN(CC[C@H](CSc3ccccc3)Nc3ccc(S(=O)(=O)NC(=O)c4ccc(N5CCN(CC6=C(c7ccc(Cl)cc7)CCC(C)(C)C6)CC5)cc4)cc3S(=O)(=O)C(F)(F)F)CC2)C(C)(C)C)cc1	12900

* * *

- test_name: Plasma pharmacokinetics of DT2216 in patients, phase 1 dose escalation
- Assay type: in vivo, human
- setup_conditions: human, plasma, iv, 0.32 mg/kg, Cycle 1 Day 1, 0.32 mg/kg IV, plasma, mean (CV%), N = 5; read-out: T½ (converted)
- Experimental: Dose escalation consisted of the administration of DT2216 intravenously twice weekly at several different doses outlined in protocol attached. The starting dose was 0.04 mg/kg, established based on pre-clinical toxicity studies. Safety was evaluated using CTCAE version 5.0. […] Patients were allowed a maximum of two intra-patient dose escalations. […] The extent of disease was evaluated using imaging studies and disease-appropriate tumor markers every 8 weeks from day 1 of the first cycle. […]
metric_name: half-life (h)

compound	reported
Cc1ncsc1-c1ccc([C@H](C)NC(=O)[C@@H]2C[C@@H](O)CN2C(=O)[C@@H](NC(=O)CCCCCC(=O)N2CCN(CC[C@H](CSc3ccccc3)Nc3ccc(S(=O)(=O)NC(=O)c4ccc(N5CCN(CC6=C(c7ccc(Cl)cc7)CCC(C)(C)C6)CC5)cc4)cc3S(=O)(=O)C(F)(F)F)CC2)C(C)(C)C)cc1 [DT2216]	7.09

* * *

- test_name: Plasma pharmacokinetics of DT2216 in patients, phase 1 dose escalation
- Type: in vivo, human
- setup_conditions: human, plasma, iv, 0.4 mg/kg, Cycle 1 Day 22, 0.4 mg/kg IV BIW, plasma, mean (CV%), N = 4; read-out: Cmax

compound	Cmax (ng/mL)
Cc1ncsc1-c1ccc([C@H](C)NC(=O)[C@@H]2C[C@@H](O)CN2C(=O)[C@@H](NC(=O)CCCCCC(=O)N2CCN(CC[C@H](CSc3ccccc3)Nc3ccc(S(=O)(=O)NC(=O)c4ccc(N5CCN(CC6=C(c7ccc(Cl)cc7)CCC(C)(C)C6)CC5)cc4)cc3S(=O)(=O)C(F)(F)F)CC2)C(C)(C)C)cc1 [DT2216]	6270

* * *

- test_name: Plasma pharmacokinetics of DT2216 in patients, phase 1 dose escalation
- Assay type: in vivo, human
- setup_conditions: human, plasma, iv, 0.04 mg/kg, Cycle 1 Day 1, 0.04 mg/kg IV, plasma, mean (CV%), N = 1; read-out: Cmax

entry_smiles	Cmax / ng/mL
Cc1ncsc1-c1ccc([C@H](C)NC(=O)[C@@H]2C[C@@H](O)CN2C(=O)[C@@H](NC(=O)CCCCCC(=O)N2CCN(CC[C@H](CSc3ccccc3)Nc3ccc(S(=O)(=O)NC(=O)c4ccc(N5CCN(CC6=C(c7ccc(Cl)cc7)CCC(C)(C)C6)CC5)cc4)cc3S(=O)(=O)C(F)(F)F)CC2)C(C)(C)C)cc1	738

* * *

- test_name: Plasma pharmacokinetics of DT2216 in patients, phase 1 dose escalation
- Assay type: in vivo, human
- setup_conditions: human, plasma, iv, 0.32 mg/kg, Cycle 1 Day 1, 0.32 mg/kg IV, plasma, mean (CV%), N = 5; read-out: CL (converted)

entry_smiles	clearance (mL/min/kg)
Cc1ncsc1-c1ccc([C@H](C)NC(=O)[C@@H]2C[C@@H](O)CN2C(=O)[C@@H](NC(=O)CCCCCC(=O)N2CCN(CC[C@H](CSc3ccccc3)Nc3ccc(S(=O)(=O)NC(=O)c4ccc(N5CCN(CC6=C(c7ccc(Cl)cc7)CCC(C)(C)C6)CC5)cc4)cc3S(=O)(=O)C(F)(F)F)CC2)C(C)(C)C)cc1	0.132

* * *

- test_name: Plasma pharmacokinetics of DT2216 in patients, phase 1 dose escalation
- Assay type: in vivo, human
- setup_conditions: human, plasma, iv, 0.12 mg/kg, Cycle 1 Day 1, 0.12 mg/kg IV, plasma, median (min, max), N = 1
metric_name: Tmax

entry_smiles	metric_name	reported
Cc1ncsc1-c1ccc([C@H](C)NC(=O)[C@@H]2C[C@@H](O)CN2C(=O)[C@@H](NC(=O)CCCCCC(=O)N2CCN(CC[C@H](CSc3ccccc3)Nc3ccc(S(=O)(=O)NC(=O)c4ccc(N5CCN(CC6=C(c7ccc(Cl)cc7)CCC(C)(C)C6)CC5)cc4)cc3S(=O)(=O)C(F)(F)F)CC2)C(C)(C)C)cc1	Tmax	45 min

* * *

- test_name: Plasma pharmacokinetics of DT2216 in patients, phase 1 dose escalation
- Type: in vivo, human
- setup_conditions: human, plasma, iv, 0.12 mg/kg, Cycle 1 Day 22, 0.12 mg/kg IV BIW, plasma, mean (CV%), N = 1; read-out: CL (converted)
- Experimental: Dose escalation consisted of the administration of DT2216 intravenously twice weekly at several different doses outlined in protocol attached. The starting dose was 0.04 mg/kg, established based on pre-clinical toxicity studies. Safety was evaluated using CTCAE version 5.0. […] Patients were allowed a maximum of two intra-patient dose escalations. […] The extent of disease was evaluated using imaging studies and disease-appropriate tumor markers every 8 weeks from day 1 of the first cycle. […]
metric_name: clearance (mL/min/kg)

entry_smiles	reported
Cc1ncsc1-c1ccc([C@H](C)NC(=O)[C@@H]2C[C@@H](O)CN2C(=O)[C@@H](NC(=O)CCCCCC(=O)N2CCN(CC[C@H](CSc3ccccc3)Nc3ccc(S(=O)(=O)NC(=O)c4ccc(N5CCN(CC6=C(c7ccc(Cl)cc7)CCC(C)(C)C6)CC5)cc4)cc3S(=O)(=O)C(F)(F)F)CC2)C(C)(C)C)cc1	0.138

* * *

- test_name: Plasma pharmacokinetics of DT2216 in patients, phase 1 dose escalation
- Type: in vivo, human
- setup_conditions: human, plasma, iv, 0.04 mg/kg, Cycle 1 Day 22, 0.04 mg/kg IV BIW, plasma, mean (CV%), N = 1; read-out: T½ (converted)

compound	half-life
Cc1ncsc1-c1ccc([C@H](C)NC(=O)[C@@H]2C[C@@H](O)CN2C(=O)[C@@H](NC(=O)CCCCCC(=O)N2CCN(CC[C@H](CSc3ccccc3)Nc3ccc(S(=O)(=O)NC(=O)c4ccc(N5CCN(CC6=C(c7ccc(Cl)cc7)CCC(C)(C)C6)CC5)cc4)cc3S(=O)(=O)C(F)(F)F)CC2)C(C)(C)C)cc1 [DT2216]	491 min
